These entries and their values trace back to ChEMBL document CHEMBL3739303.

Biological target: Signal transducer and activator of transcription 6 (Homo sapiens)
Sequence (P42226 whole entry): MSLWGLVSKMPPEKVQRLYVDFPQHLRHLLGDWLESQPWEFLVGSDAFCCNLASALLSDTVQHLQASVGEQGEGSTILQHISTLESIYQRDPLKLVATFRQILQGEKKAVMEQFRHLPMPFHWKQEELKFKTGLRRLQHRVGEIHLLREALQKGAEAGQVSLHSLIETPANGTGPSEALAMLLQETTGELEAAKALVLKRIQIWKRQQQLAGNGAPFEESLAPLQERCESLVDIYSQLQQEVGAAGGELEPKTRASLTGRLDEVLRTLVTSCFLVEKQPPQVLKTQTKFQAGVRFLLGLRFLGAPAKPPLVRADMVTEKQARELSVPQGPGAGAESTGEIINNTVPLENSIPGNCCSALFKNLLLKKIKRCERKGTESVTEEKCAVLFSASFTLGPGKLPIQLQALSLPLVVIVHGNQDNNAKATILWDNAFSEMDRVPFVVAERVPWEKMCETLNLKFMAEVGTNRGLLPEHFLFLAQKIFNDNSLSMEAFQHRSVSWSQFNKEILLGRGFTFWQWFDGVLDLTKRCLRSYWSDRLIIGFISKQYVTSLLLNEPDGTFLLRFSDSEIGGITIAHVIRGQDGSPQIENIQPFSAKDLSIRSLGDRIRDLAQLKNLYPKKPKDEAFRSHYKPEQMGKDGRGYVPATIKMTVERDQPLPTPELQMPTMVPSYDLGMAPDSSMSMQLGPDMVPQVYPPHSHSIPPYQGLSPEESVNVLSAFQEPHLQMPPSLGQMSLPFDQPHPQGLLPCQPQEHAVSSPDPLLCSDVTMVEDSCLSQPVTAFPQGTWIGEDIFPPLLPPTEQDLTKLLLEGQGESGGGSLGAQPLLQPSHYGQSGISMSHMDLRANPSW
quantity: pIC50
Please express pIC50 as -log10 of the molar concentration.

C/C(=C\C(=O)N[C@H](C(=O)N1CCC[C@H]1C(=O)N(C)c1ccccc1)C(C)(C)C)c1ccc(OP(=O)(O)O)cc1    6.92
CC(C)(C)[C@H](NC(=O)/C=C/c1ccc(OP(=O)(O)O)cc1)C(=O)N1CCC[C@H]1C(=O)N(c1ccccc1)c1ccc(I)cc1    7.36

Please examine the following record next.
Enquiry: Given C/C(=C\C(=O)N[C@H](C(=O)N1CCC[C@H]1C(=O)N(C)C)C(C)(C)C)c1ccc(OP(=O)(O)O)cc1 , state its recorded pIC50.
Return: 6.13
